Attribution: ChEMBL document CHEMBL4138231

- study.target: Serine/threonine-protein kinase PLK3 (Homo sapiens, UniProt Q9H4B4)
- Sequence (Q9H4B4 whole entry, the tested form may be a part): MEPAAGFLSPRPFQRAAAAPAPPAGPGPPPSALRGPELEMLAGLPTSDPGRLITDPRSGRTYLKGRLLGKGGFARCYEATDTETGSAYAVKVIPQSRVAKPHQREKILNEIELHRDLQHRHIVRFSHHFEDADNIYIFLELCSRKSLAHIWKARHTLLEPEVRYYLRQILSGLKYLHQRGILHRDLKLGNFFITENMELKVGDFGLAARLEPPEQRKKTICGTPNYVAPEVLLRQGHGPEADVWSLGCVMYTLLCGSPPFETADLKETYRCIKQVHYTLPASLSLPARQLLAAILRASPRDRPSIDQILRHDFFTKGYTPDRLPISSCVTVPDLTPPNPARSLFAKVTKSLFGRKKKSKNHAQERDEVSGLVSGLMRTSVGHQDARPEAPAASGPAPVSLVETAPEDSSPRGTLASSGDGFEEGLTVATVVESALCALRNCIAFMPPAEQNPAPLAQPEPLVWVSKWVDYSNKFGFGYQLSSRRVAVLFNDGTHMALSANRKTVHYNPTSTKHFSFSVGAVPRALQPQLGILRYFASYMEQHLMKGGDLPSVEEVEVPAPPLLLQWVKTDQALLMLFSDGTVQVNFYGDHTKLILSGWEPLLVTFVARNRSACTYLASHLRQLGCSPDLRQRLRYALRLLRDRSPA
- experimental.protocol: Inhibition human recombinant GST-tagged Plk3 catalytic domain (58 to 340 residues) expressed in baculovirus expression system after 1 hr by FRET-based Z'-Lyte assay
value.type: IC50

Give IC50 (Serine/threonine-protein kinase PLK3 (Homo sapiens, UniProt Q9H4B4)) of the following compound: CCC1C(=O)N(C)c2cnc(-n3ccc4cc(C(=O)NC(C)C)ccc43)nc2N1c1ccn(C)n1 (racemic) > 10 µM

Do the same for CC[C@@H]1C(=O)N(C)c2cnc(-n3ccc4cc(F)ccc43)nc2N1C1CCCC1 please > 20 µM

Note, next up: CCCNC(=O)c1ccc2c(ccn2-c2ncc3c(n2)N(c2ccn(C)n2)C(CC)C(=O)N3C)c1 (racemic) > 10 µM

----------
Would you kindly list log10 IC50 for each of these molecules?
- study.target: Serine/threonine-protein kinase PLK2 (Homo sapiens, UniProt Q9NYY3)
- Sequence (Q9NYY3 whole entry): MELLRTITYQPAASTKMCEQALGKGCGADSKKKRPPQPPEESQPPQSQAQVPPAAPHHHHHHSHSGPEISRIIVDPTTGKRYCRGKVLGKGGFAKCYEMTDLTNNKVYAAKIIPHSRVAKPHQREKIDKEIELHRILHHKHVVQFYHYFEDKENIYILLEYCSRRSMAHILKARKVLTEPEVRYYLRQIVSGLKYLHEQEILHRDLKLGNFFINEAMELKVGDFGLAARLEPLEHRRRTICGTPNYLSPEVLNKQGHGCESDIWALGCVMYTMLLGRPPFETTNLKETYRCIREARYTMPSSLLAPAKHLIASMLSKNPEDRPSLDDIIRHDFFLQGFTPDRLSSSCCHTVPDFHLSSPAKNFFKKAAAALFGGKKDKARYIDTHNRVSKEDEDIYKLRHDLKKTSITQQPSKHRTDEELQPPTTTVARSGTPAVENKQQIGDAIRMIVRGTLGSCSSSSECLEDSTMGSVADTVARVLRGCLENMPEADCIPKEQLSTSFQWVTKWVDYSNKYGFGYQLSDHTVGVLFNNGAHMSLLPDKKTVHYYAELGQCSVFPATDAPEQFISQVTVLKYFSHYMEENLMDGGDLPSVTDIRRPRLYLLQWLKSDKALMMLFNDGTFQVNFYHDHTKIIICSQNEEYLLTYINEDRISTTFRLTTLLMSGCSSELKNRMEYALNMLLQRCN
- experimental.protocol: Inhibition human recombinant full length GST-tagged Plk2 expressed in baculovirus expression system after 1 hr by FRET-based Z'-Lyte assay
Kindly note that the scale is log10 and the underlying IC50 is in nM.

Request the reported log10 IC50 associated with CCC1C(=O)N(C)c2cnc(-n3ccc4cc(F)ccc43)nc2N1c1ccn(C)n1 (racemic) 3.18

Please do the same for CCC1C(=O)N(C)c2cnc(Nc3ccc(S(=O)(=O)NC)cc3)nc2N1c1ccn(C)n1 (racemic) as well. 1.85

Now give it for CCC1C(=O)N(C)c2cnc(Nc3ccc(S(N)(=O)=O)cc3)nc2N1c1ccn(C)n1 (racemic) too. 2.08

For CCCNS(=O)(=O)c1ccc(Nc2ncc3c(n2)N(c2ccn(C)n2)C(CC)C(=O)N3C)cc1 (racemic) then? 2.28

Same again, this time with CCC1C(=O)N(C)c2cnc(Nc3ccc(S(=O)(=O)NCC(C)C)cc3)nc2N1c1ccn(C)n1 (racemic) 2.49

Similarly, CCCCNS(=O)(=O)c1ccc(Nc2ncc3c(n2)N(c2ccn(C)n2)C(CC)C(=O)N3C)cc1 (racemic) ? 2.28

For CC[C@@H]1C(=O)N(C)c2cnc(Nc3ccc(S(=O)(=O)NCC(C)C)cc3)nc2N1C1CCCC1 then? 1.34

Param item: CC[C@@H]1C(=O)N(C)c2cnc(Nc3ccc(S(=O)(=O)NC4CCCC4)cc3)nc2N1C1CCCC1 1.38

----------
- study.target: Serine/threonine-protein kinase PLK2 (Homo sapiens, UniProt Q9NYY3)
- experimental.protocol: Inhibition human recombinant full length GST-tagged Plk2 expressed in baculovirus expression system after 1 hr by FRET-based Z'-Lyte assay
// NB: equality with 20 nM counts as F; only IC50 strictly below is T

Please let me know if CCCCNC(=O)c1ccc2c(ccn2-c2ncc3c(n2)N(c2ccn(C)n2)C(CC)C(=O)N3C)c1 (racemic) shows IC50 below 20 nM. F

Also, CCC1C(=O)N(C)c2cnc(Nc3ccc(S(=O)(=O)NCCCO)cc3)nc2N1c1ccn(C)n1 (racemic) please. F

Request: CCCCNC(=O)c1ccc2c(ccn2-c2ncc3c(n2)N(C2CCCC2)[C@H](CC)C(=O)N3C)c1 T

Subsequent entry: CCC1C(=O)N(C)c2cnc(-n3ccc4cc(C(=O)NC(C)C)ccc43)nc2N1c1ccn(C)n1 (racemic) F

Field entry: CCCNS(=O)(=O)c1ccc(Nc2ncc3c(n2)N(C2CCCC2)[C@H](CC)C(=O)N3C)cc1 T

Next compound up: CCC1C(=O)N(C)c2cnc(-n3ccc4cc(C(=O)NCC(C)C)ccc43)nc2N1c1ccn(C)n1 (racemic) F

Then this compound: CC[C@@H]1C(=O)N(C)c2cnc(-n3ccc4cc(F)ccc43)nc2N1C1CCCC1 F

Next up: CC[C@@H]1C(=O)N(C)c2cnc(Nc3ccc(S(N)(=O)=O)cc3)nc2N1C1CCCC1 T

Here is the next compound: CCCNC(=O)c1ccc2c(ccn2-c2ncc3c(n2)N(c2ccn(C)n2)C(CC)C(=O)N3C)c1 (racemic) F

Consider next the compound CCCNC(=O)c1ccc2c(ccn2-c2ncc3c(n2)N(C2CCCC2)[C@H](CC)C(=O)N3C)c1 in the same way. T

And CCC1C(=O)N(C)c2cnc(Nc3ccc(S(=O)(=O)NCCO)cc3)nc2N1c1ccn(C)n1 (racemic) ? F

Same for CC[C@@H]1C(=O)N(C)c2cnc(-n3ccc4cc(C(=O)NC(C)C)ccc43)nc2N1C1CCCC1 T

What do we get for CC[C@@H]1C(=O)N(C)c2cnc(-n3ccc4cc(C(=O)NCC(C)C)ccc43)nc2N1C1CCCC1 ? T

Now the compound CC[C@@H]1C(=O)N(C)c2cnc(Nc3ccc(S(=O)(=O)NCCO)cc3)nc2N1C1CCCC1 T

Same for CCNC(=O)c1ccc2c(ccn2-c2ncc3c(n2)N(c2ccn(C)n2)C(CC)C(=O)N3C)c1 (racemic) F

Then CC[C@@H]1C(=O)N(C)c2cnc(Nc3ccc(S(=O)(=O)NCCCO)cc3)nc2N1C1CCCC1 ? T
